Target: human α1D receptor (Homo sapiens, UniProt P25100)
Construct: expressed in transfected cells; host or cells: CHO cells (membrane preparation)
Sequence (P25100 whole entry): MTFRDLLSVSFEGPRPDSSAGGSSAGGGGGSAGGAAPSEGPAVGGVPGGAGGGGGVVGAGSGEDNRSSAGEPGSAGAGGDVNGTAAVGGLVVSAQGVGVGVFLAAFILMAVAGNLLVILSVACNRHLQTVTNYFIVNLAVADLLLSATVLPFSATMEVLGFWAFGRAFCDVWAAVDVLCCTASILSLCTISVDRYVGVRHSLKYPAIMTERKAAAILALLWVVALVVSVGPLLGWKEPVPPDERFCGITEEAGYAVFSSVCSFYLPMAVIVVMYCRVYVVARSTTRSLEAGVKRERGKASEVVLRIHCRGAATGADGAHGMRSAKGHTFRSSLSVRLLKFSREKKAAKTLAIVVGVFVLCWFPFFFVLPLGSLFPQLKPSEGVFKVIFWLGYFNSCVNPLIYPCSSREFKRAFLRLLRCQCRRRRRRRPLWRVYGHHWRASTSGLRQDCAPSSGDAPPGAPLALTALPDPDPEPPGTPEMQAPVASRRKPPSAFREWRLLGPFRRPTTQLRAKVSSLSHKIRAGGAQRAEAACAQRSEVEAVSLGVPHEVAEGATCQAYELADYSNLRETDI
Assay: Adrenaline α1D receptor binding assay ([3H]-prazosin)
Conditions: 100 nM test drug; [3H]-prazosin 0.6 nM; human α1D receptor-expressing CHO cell membrane; read-out: BINDING INHIBITION RATE (%) α1D 100 nM
Experimental readout: inhibition at 0.1 µM (%)
Answers are plain numbers, in %.

Some molecules with known inhibition at 0.1 µM results, for comparison:
{"Molecule": "O=C(c1ccc(F)cc1)C1CCN(CC[C@@H]2CCCN2C(=O)c2cc3ccc(F)cc3[nH]2)CC1 [Example 159]", "inhibition at 0.1 µM / %": 71}
{"Molecule": "Cc1ccc2cc(C(=O)N3CCC[C@H]3CCN3CCC(C(=O)c4ccc(F)cc4)CC3)[nH]c2c1 [Example 1]", "inhibition at 0.1 µM / %": 68}
{"Molecule": "Cc1ccc2cc(C(=O)N3C[C@H](O)CC[C@H]3CCN3CCC(c4c[nH]c5ccccc45)CC3)[nH]c2c1 [Example 39]", "inhibition at 0.1 µM / %": 69}

Please find the next molecule below.
Param item = N#Cc1ccc2[nH]c(C(=O)N3CCC[C@H]3CCN3CCC(C(=O)c4ccc(F)cc4)CC3)cc2c1 [Example 56] ; retrieve measured inhibition at 0.1 µM. 70
